Please provide measured protein stability index for the entries that follow.
B1: KRT71 (parent)
chain: ELRNVQDVVEDYKKRYEEEINKRT

Variants of: B1
assay.overview: protein stability index of a GFP-peptide fusion (GPS, HEK-293T) (PSI 1-6); higher = more stable;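 further: lentivirally expressed fusions sorted by FACS into six bins by GFP to DsRed ratio, PSI derived from sequencing read proportions per bin multiplied by bin number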
conditions.used: c terminus: a fixed tail appended
Numbers only.

>>> df
   mutations  numeric_value
0       R23M           3.03
1       E17R           4.12
2       K13I           3.27

Please give protein stability index for each item listed below.
1. D11Q
2. Y12S
3. V8N

Result ::
1: 4.23; 2: 4.26; 3: 3.38
